src = paper PMC9505732

# IC50 annotations
System: Leishmania donovani
Test: Leishmania donovani infected macrophage assay
Assay type: cell-based
Details: read-out: IC50 against Leishmania donovani

COMPOUND	IC50 (µM)
CC(=O)OCCc1c(C)cc2c(c1COC(C)=O)CC(C)(C)C2	1.2
Cc1cc2c(c(C)c1CCO[N+](=O)[O-])CC(C)(C)C2=O	13
CCCCCCCCCCCCCCCCOP(=O)([O-])OCC[N+](C)(C)C [miltefosine, reference compound]	6.2
Cc1cc2c(c3c1[C@@H](CCl)OC3=O)CC(C)(C)[C@@H]2O	2.4
Cc1cc2c(c3c1[C@@H](CO[N+](=O)[O-])OC3=O)CC(C)(C)C2	3.1
CC(=O)O[C@@H]1[C@H](OC(C)=O)[C@H]([C@H](C)CCCC(C)C)[C@@]2(C)C[C@@H](OC(C)=O)[C@H]3[C@@H](C[C@@H](O)[C@H]4CC=CC(=O)[C@]34C)[C@H]12	1.5
Cc1cc2c(c3c1[C@@H](CO)OC3=O)CC(C)(C)C2	7

* * *

Assay: MTT cytotoxicity toward human kidney cells
Format: cell-based
Conditions: human, HEK293T cells; host cell line HEK293T, MTT, 24 h incubation
# CC50 at 24 h annotations
PROPERTY: CC50 at 24 h (µM)

COMPOUND	NUMERIC_READOUT
Cc1cc2c(c3c1[C@@H](CO[N+](=O)[O-])OC3=O)CC(C)(C)C2 [Alcyopterosin E]	570
Cc1cc2c(c3c1[C@@H](CO)OC3=O)CC(C)(C)C2 [Alcyopterosin V]	220
